system: TO-N3 (biotin conjugate); assay: pull-down binding Z-score (relative to library population); higher = stronger binding; conditions: RNA library: Library-2
Observed property: pull-down binding Z-score
# respond with the number and nothing more

Enquiry: Returns the measured pull-down binding Z-score for the input sequence. Input: "AAUGUAGUAGAAUUAUACCUGCACGUGCUCGUGUAGAGUGUUUUGAUAAAUUCAAAGUGAAUUCAACAUUAGAACAGUAUGUCUUUUGUACUGUAAAUGCAUU"
Return: 0.182

Enquiry: Returns the measured pull-down binding Z-score for the input sequence. Input: CAGAGCUGCAGCUGCUCCACCCUG [hsa-mir-6730]
Return: 1.12

Enquiry: Returns the measured pull-down binding Z-score for the input sequence. Input: UGCUGGUGCUAGAGAGGAAAGCA [hsa-mir-4748]
Return: 0.985

Enquiry: Returns the measured pull-down binding Z-score for the input sequence. Input: CUCGCUGGGAGGUGUGCUAUCGUCUUCCCUGGGAG [hsa-mir-3689d-2]
Return: 0.338

Enquiry: Returns the measured pull-down binding Z-score for the input sequence. Input: UGGUGGAGAUGGAGAGCCCUGAGCCUCCA [hsa-mir-6777]
Return: 0.727

----------
test system: TO-N3-2 (biotin conjugate); assay: pull-down binding Z-score (relative to library population); higher = stronger binding; details: RNA library: Library-2
Assign TRUE to entries whose pull-down binding Z-score meets or exceeds -0.3; assign FALSE to the rest.

Enquiry: I'd appreciate it if you could say whether UCUCAAUCCAUUCAUAUUGAAA [hsa-mir-3662] has pull-down binding Z-score at least equal to -0.3.
Return: FALSE

Enquiry: I'd appreciate it if you could say whether CUUAGUAGGUGAUAGCAUGACUGAC [hsa-mir-5002] has pull-down binding Z-score at least equal to -0.3.
Return: TRUE

Enquiry: I'd appreciate it if you could say whether GGAGCCUUCCCCAGAGGAGUCAGGCC [hsa-mir-4312] has pull-down binding Z-score at least equal to -0.3.
Return: TRUE

Enquiry: I'd appreciate it if you could say whether UAGAUGCUGUAAAUUUACUUACUAAUAUGUUUACACCACUAAUUCAACCUAUUGGUGCUUUGGACAUAUCAGCAUCUA [DMSMaPseq_invitro_SARS-CoV-2_Multi_30_ComplexLevel_1] has pull-down binding Z-score at least equal to -0.3.
Return: TRUE

Enquiry: I'd appreciate it if you could say whether "GAUGGCACUUGUGGCUUAGUAGAAGUUGAAAAAGGCGUUUUGCCUCAACUUGAACAGCCCUAUGUGUUCAUC" has pull-down binding Z-score at least equal to -0.3.
Return: TRUE

Enquiry: I'd appreciate it if you could say whether GUGAGGCAGGGAGCUGAGCUCAC [hsa-mir-3622a] has pull-down binding Z-score at least equal to -0.3.
Return: TRUE

Enquiry: I'd appreciate it if you could say whether AAGCAGGGUCGGGCCUGGUU [hsa-mir-7641-2] has pull-down binding Z-score at least equal to -0.3.
Return: TRUE

Enquiry: I'd appreciate it if you could say whether AGUCAUAACAAGAGAAGUGGGUUUUGUCGUGCCUGGUUUGCCUGGCACGAUAUUACGCACAACUAAUGGUGACU [DMSMaPseq_invitro_SARS-CoV-2_Motif_162] has pull-down binding Z-score at least equal to -0.3.
Return: TRUE

Enquiry: I'd appreciate it if you could say whether GGCUGUGAGCUCUAGCAAUGCCC [hsa-mir-146b] has pull-down binding Z-score at least equal to -0.3.
Return: TRUE

Enquiry: I'd appreciate it if you could say whether UGUGAUUUUAAUAGCUUCUUAGGAGAAUGACA [SHAPE_invivo_SARS-CoV-2_Motif_573] has pull-down binding Z-score at least equal to -0.3.
Return: FALSE

Enquiry: I'd appreciate it if you could say whether CACAAGACUAGGCUUCCCUGUG [hsa-mir-3152] has pull-down binding Z-score at least equal to -0.3.
Return: TRUE

Enquiry: I'd appreciate it if you could say whether CUUUCUGUUGUCUGAGAGAAAAGAAAG [hsa-mir-520a] has pull-down binding Z-score at least equal to -0.3.
Return: FALSE

Enquiry: I'd appreciate it if you could say whether "AGUGCCAACAGACAAUUAUAUAACCACUUACCCGGGUCAGGGUUUAAAUGGUUACACU" has pull-down binding Z-score at least equal to -0.3.
Return: FALSE

Enquiry: I'd appreciate it if you could say whether ACAGCAGAGUGCUGU [IAV_invivo_M1_M2_7_Motif_17+IAV_invivo_M1_M2_7_Motif_17] has pull-down binding Z-score at least equal to -0.3.
Return: FALSE

Enquiry: I'd appreciate it if you could say whether UUUGCGUUACUUUCAAUCGUAAA [hsa-mir-548x] has pull-down binding Z-score at least equal to -0.3.
Return: FALSE

Enquiry: I'd appreciate it if you could say whether UAAUGCUCUGAAAAUGACUCCAAUCAUUA [hsa-mir-3202-2] has pull-down binding Z-score at least equal to -0.3.
Return: FALSE

Enquiry: I'd appreciate it if you could say whether AUCAAAGUGGGGACUCAUGGGGAGAG [hsa-mir-4284] has pull-down binding Z-score at least equal to -0.3.
Return: TRUE

Enquiry: I'd appreciate it if you could say whether "UGAUGUUUGUCA" has pull-down binding Z-score at least equal to -0.3.
Return: FALSE

Enquiry: I'd appreciate it if you could say whether CAUUAACGUGGACCAGACAAUAUUAAUG [hsa-mir-4491] has pull-down binding Z-score at least equal to -0.3.
Return: TRUE

Enquiry: I'd appreciate it if you could say whether CCUGCACCACGCACAUUGCUAACUAAGG [SHAPE_invitro_SARS-CoV-2_Motif_318] has pull-down binding Z-score at least equal to -0.3.
Return: TRUE

Enquiry: I'd appreciate it if you could say whether UAGUCUAAUAGGGACUA [hsa-mir-5681b] has pull-down binding Z-score at least equal to -0.3.
Return: FALSE

Enquiry: I'd appreciate it if you could say whether GGAGAUGAGGCGUUGCCUCCUCC [IAV_invivo_PA_3_Motif_24+IAV_invivo_PA_3_Motif_24] has pull-down binding Z-score at least equal to -0.3.
Return: TRUE

Enquiry: I'd appreciate it if you could say whether CUUUUAGAGUAAUUGUGAAACUGUUUUUCAAAG [hsa-mir-562] has pull-down binding Z-score at least equal to -0.3.
Return: FALSE

Enquiry: I'd appreciate it if you could say whether AAGUUUGUUCGCAUUCAACCAGGACAGACUU [DMSMaPseq_invitro_SARS-CoV-2_Motif_187] has pull-down binding Z-score at least equal to -0.3.
Return: FALSE

Enquiry: I'd appreciate it if you could say whether CAAUCAUGUGUAAUUAGAUAUGAUUG [hsa-mir-514b] has pull-down binding Z-score at least equal to -0.3.
Return: FALSE

Enquiry: I'd appreciate it if you could say whether UUUCUGAAUUUGUGAGA [hsa-mir-4463] has pull-down binding Z-score at least equal to -0.3.
Return: FALSE

Enquiry: I'd appreciate it if you could say whether CAUACAUAUGCCUACUACUACUUUCAUAUGUAGGCAUAUGUAUG [hsa-mir-7852] has pull-down binding Z-score at least equal to -0.3.
Return: FALSE

Enquiry: I'd appreciate it if you could say whether GAGCUCAGGAGCUC [hsa-mir-8052] has pull-down binding Z-score at least equal to -0.3.
Return: FALSE

Enquiry: I'd appreciate it if you could say whether CUGUUGUGCCUAAUUCAGAG [hsa-mir-296] has pull-down binding Z-score at least equal to -0.3.
Return: TRUE

Enquiry: I'd appreciate it if you could say whether GCUUAUUGAUGUAGCCAACAAGC [hsa-mir-3148] has pull-down binding Z-score at least equal to -0.3.
Return: FALSE

Enquiry: I'd appreciate it if you could say whether UAUGCCAUUAAAAGUAAUGGUAAA [hsa-mir-548aj-1] has pull-down binding Z-score at least equal to -0.3.
Return: FALSE

Enquiry: I'd appreciate it if you could say whether GUGAGGUAUUUUAGUAACAUCAC [hsa-mir-125b-2] has pull-down binding Z-score at least equal to -0.3.
Return: FALSE

Enquiry: I'd appreciate it if you could say whether UAUUGUGUUGAUCAACAAUA [hsa-mir-5590] has pull-down binding Z-score at least equal to -0.3.
Return: FALSE

Enquiry: I'd appreciate it if you could say whether AAAACUUUCAUCCAAGUCAUU [hsa-mir-378d-2] has pull-down binding Z-score at least equal to -0.3.
Return: FALSE

Enquiry: I'd appreciate it if you could say whether GCUUCCGCUCUGCAGAGGC [hsa-mir-6822] has pull-down binding Z-score at least equal to -0.3.
Return: FALSE

Enquiry: I'd appreciate it if you could say whether AUGGUUAAUGUUCCACAGCCA [hsa-mir-5190] has pull-down binding Z-score at least equal to -0.3.
Return: TRUE

Enquiry: I'd appreciate it if you could say whether GCCUCUUCUCCAUGAGAGGC [hsa-mir-885] has pull-down binding Z-score at least equal to -0.3.
Return: FALSE

Enquiry: I'd appreciate it if you could say whether CAGUACUGGUCUUAGACUG [hsa-mir-554] has pull-down binding Z-score at least equal to -0.3.
Return: TRUE

Enquiry: I'd appreciate it if you could say whether GCUUAUGUCAUGACCUUGGGCUACUCAGGCUGUCUGCACAAUGAGC [hsa-mir-575] has pull-down binding Z-score at least equal to -0.3.
Return: TRUE

Enquiry: I'd appreciate it if you could say whether UAUCUAUAUAUAUGUGUA [hsa-mir-3171] has pull-down binding Z-score at least equal to -0.3.
Return: TRUE

Enquiry: I'd appreciate it if you could say whether CGCCAGCUCGCUGACAGCACGACUCAGGGCG [hsa-mir-658] has pull-down binding Z-score at least equal to -0.3.
Return: TRUE

Enquiry: I'd appreciate it if you could say whether "UGCCUUCAAACUCAACAUUAAAUUGUUGGGUGUUGGUGGCA" has pull-down binding Z-score at least equal to -0.3.
Return: FALSE
